As a worked illustration, we turn to MIC data collected for T. rubrum IF09185.
Readout name: MIC (µg/mL)

[Q] What MIC appears in the records for this compound with T. rubrum IF09185? CN(C/C=C/C#CC(C)(C)C)CC(=O)c1ccccc1O
[A] 12.5

[Q] Further, for C=C(CN(C)C/C=C/C#CC(C)(C)C)c1ccc(O)cc1 ?
[A] 50

[Q] Further, for C=C(CN(C)Cc1ccc(C(C)(C)C)cc1)c1ccccc1C ?
[A] 3.12

[Q] Further, for C=C(CN(C)Cc1ccc(C(C)(C)C)cc1)c1ccc(C)cc1C ?
[A] 3.12

[Q] Further, for C=C(CN(C)C/C=C/C#CC(C)(C)C)c1ccccc1N ?
[A] 1.56

A. C=C(CN(C)C/C=C/C#CC(C)(C)C)c1ccccc1Br
B. C=C(CN(C)C/C=C/C#CC(C)(C)C)c1cccc(C)c1
C. CN(CC(=O)c1ccccc1O)Cc1ccc(C(C)(C)C)cc1
[Q] Could you please sort these 3 entries by MIC from high to low? Labels, ranked as asked.
[A] C, A, B

a. C=C(CN(C)C/C=C/C#CC(C)(C)C)c1cc(F)cc(F)c1
b. C=C(CN(C)Cc1ccc(C(C)(C)C)cc1)c1ccc(C)c(C)c1
[Q] Identify the item whose MIC is the smaller number: a or b Output the label that corresponds to your choice.
[A] a
(a: 0.1 µg/mL, b: 0.78 µg/mL)

I. C=C(CN(C)C/C=C/C#CC(C)(C)C)c1ccccc1F
II. C=C(CN(C)C/C=C/C#CC(C)(C)C)c1ccccc1
III. C=C(CN(C)Cc1ccc(C(C)(C)C)cc1)c1ccccc1[N+](=O)[O-]
IV. C=C(CN(C)C/C=C/C#CC(C)(C)C)c1cccc(Br)c1
[Q] List the 4 entries from lowest MIC to highest MIC value. Labels, ranked as asked.
[A] IV, I, II, III
(IV: 0.1 µg/mL, I: 0.39 µg/mL, II: 0.78 µg/mL, III: 3.12 µg/mL)

I. C=C(CN(C)Cc1ccc(C(C)(C)C)cc1)c1cccc(C#N)c1
II. C=C(CN(C)Cc1ccc(C(C)(C)C)cc1)c1cccc([N+](=O)[O-])c1
[Q] Identify the item whose MIC is the smaller number: I or II Output the label that corresponds to your choice.
[A] I
